Give viability, T/C for every item shown.
tested on: 857933-349-R-J2-PDC complex spheroid viability; test: Anticancer human tumor 857933-349-R-J2-PDC patient-derived colon adenocarcinoma cell line growth inhibition [POLQ]; conditions: second compound 0.316 µM; first compound 0.01 µM; stronger effect = lower value
Numbers only, in %.

Here is how some compounds turned out for viability, T/C.
CCc1c2c(nc3ccc(O)cc13)-c1cc3c(c(=O)n1C2)COC(=O)[C@]3(O)CC + COC1C(OC(N)=O)C(O)C(Oc2ccc3c(O)c(NC(=O)c4ccc(O)c(CC=C(C)C)c4)c(=O)oc3c2C)OC1(C)C    71.7
CCc1c2c(nc3ccc(O)cc13)-c1cc3c(c(=O)n1C2)COC(=O)[C@]3(O)CC + Nc1ccc(C#CCN(C(=O)Cc2ncc(C(F)(F)F)cc2C(F)(F)F)c2ccc(F)cc2)nn1    53.6
C=CCn1c(=O)c2cnc(Nc3ccc(N4CCN(C)CC4)cc3)nc2n1-c1cccc(C(C)(C)O)n1 + COC1C(OC(N)=O)C(O)C(Oc2ccc3c(O)c(NC(=O)c4ccc(O)c(CC=C(C)C)c4)c(=O)oc3c2C)OC1(C)C    95.3

List reported viability, T/C for each of these compounds:
1. CC[C@@]1(O)C(=O)OCc2c1cc1n(c2=O)Cc2cc3c(CN(C)C)c(O)ccc3nc2-1 + Cc1cccc(N(C)C(=O)C2C(O)CCN2c2nc(C)cc(C(F)(F)F)c2C#N)c1
2. CC[C@@]1(O)C(=O)OCc2c1cc1n(c2=O)Cc2cc3c(CN(C)C)c(O)ccc3nc2-1 + COC1C(OC(N)=O)C(O)C(Oc2ccc3c(O)c(NC(=O)c4ccc(O)c(CC=C(C)C)c4)c(=O)oc3c2C)OC1(C)C
3. Cn1ncnc1[C@H]1c2n[nH]c(=O)c3cc(F)cc(c23)N[C@@H]1c1ccc(F)cc1 + COC1C(OC(N)=O)C(O)C(Oc2ccc3c(O)c(NC(=O)c4ccc(O)c(CC=C(C)C)c4)c(=O)oc3c2C)OC1(C)C
4. COc1cccc(OCCCN)c1-c1cc(Nc2cnc(C#N)cn2)n[nH]1 + COC1C(OC(N)=O)C(O)C(Oc2ccc3c(O)c(NC(=O)c4ccc(O)c(CC=C(C)C)c4)c(=O)oc3c2C)OC1(C)C

[78, 76.1, 77.8, 86.1]

---

test system: 857933-349-R-J2-PDC complex spheroid viability; test: Anticancer human tumor 857933-349-R-J2-PDC cell line growth inhibition [POLQ]; conditions: second compound 1 µM; first compound 0.00316 µM; stronger effect = lower value;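 further: spheroids exposed to compounds for seven days before readout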
Assign labels as follows, please: yes for viability, T/C below 90%; no for viability, T/C equal to or exceeding 90%.

Completed entries (count: 4):
CC[C@@]1(O)C(=O)OCc2c1cc1n(c2=O)Cc2cc3c(CN(C)C)c(O)ccc3nc2-1 + Cc1cccc(N(C)C(=O)C2C(O)CCN2c2nc(C)cc(C(F)(F)F)c2C#N)c1    yes
CCc1c2c(nc3ccc(O)cc13)-c1cc3c(c(=O)n1C2)COC(=O)[C@]3(O)CC + Nc1ccc(C#CCN(C(=O)Cc2ncc(C(F)(F)F)cc2C(F)(F)F)c2ccc(F)cc2)nn1    yes
C=CCn1c(=O)c2cnc(Nc3ccc(N4CCN(C)CC4)cc3)nc2n1-c1cccc(C(C)(C)O)n1 + Cc1cccc(N(C)C(=O)C2C(O)CCN2c2nc(C)cc(C(F)(F)F)c2C#N)c1    no
CC[C@@]1(O)C(=O)OCc2c1cc1n(c2=O)Cc2cc3c(CN(C)C)c(O)ccc3nc2-1 + Nc1ccc(C#CCN(C(=O)Cc2ncc(C(F)(F)F)cc2C(F)(F)F)c2ccc(F)cc2)nn1    no

Next up:
Find out if reported viability, T/C for COc1cccc(OCCCN)c1-c1cc(Nc2cnc(C#N)cn2)n[nH]1 + Cc1cccc(N(C)C(=O)C2C(O)CCN2c2nc(C)cc(C(F)(F)F)c2C#N)c1 is less than 90%
no

---

Give measured viability, T/C for each item. Keep answers brief.
system: 857933-349-R-J2-PDC complex spheroid viability; experiment: Anticancer human tumor 857933-349-R-J2-PDC cell line growth inhibition [POLQ]; conditions: second compound 0.0316 µM; first compound 0.01 µM; stronger effect = lower value;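 further: spheroids exposed to compounds for seven days before readout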
One number for each entry, in %.

# annotated cases, reported viability, T/C shown
CCc1c2c(nc3ccc(O)cc13)-c1cc3c(c(=O)n1C2)COC(=O)[C@]3(O)CC + Nc1ccc(C#CCN(C(=O)Cc2ncc(C(F)(F)F)cc2C(F)(F)F)c2ccc(F)cc2)nn1    63.6
Cn1ncnc1[C@H]1c2n[nH]c(=O)c3cc(F)cc(c23)N[C@@H]1c1ccc(F)cc1 + COC1C(OC(N)=O)C(O)C(Oc2ccc3c(O)c(NC(=O)c4ccc(O)c(CC=C(C)C)c4)c(=O)oc3c2C)OC1(C)C    92.6
Cn1ncnc1[C@H]1c2n[nH]c(=O)c3cc(F)cc(c23)N[C@@H]1c1ccc(F)cc1 + Cc1cccc(N(C)C(=O)C2C(O)CCN2c2nc(C)cc(C(F)(F)F)c2C#N)c1    125

Would you mind listing viability, T/C for each of the following molecules?
1. CC[C@@]1(O)C(=O)OCc2c1cc1n(c2=O)Cc2cc3c(CN(C)C)c(O)ccc3nc2-1 + Nc1ccc(C#CCN(C(=O)Cc2ncc(C(F)(F)F)cc2C(F)(F)F)c2ccc(F)cc2)nn1
2. COc1cccc(OCCCN)c1-c1cc(Nc2cnc(C#N)cn2)n[nH]1 + Nc1ccc(C#CCN(C(=O)Cc2ncc(C(F)(F)F)cc2C(F)(F)F)c2ccc(F)cc2)nn1
3. CCc1c2c(nc3ccc(O)cc13)-c1cc3c(c(=O)n1C2)COC(=O)[C@]3(O)CC + Cc1cccc(N(C)C(=O)C2C(O)CCN2c2nc(C)cc(C(F)(F)F)c2C#N)c1
4. COc1cccc(OCCCN)c1-c1cc(Nc2cnc(C#N)cn2)n[nH]1 + Cc1cccc(N(C)C(=O)C2C(O)CCN2c2nc(C)cc(C(F)(F)F)c2C#N)c1
5. CC[C@@]1(O)C(=O)OCc2c1cc1n(c2=O)Cc2cc3c(CN(C)C)c(O)ccc3nc2-1 + COC1C(OC(N)=O)C(O)C(Oc2ccc3c(O)c(NC(=O)c4ccc(O)c(CC=C(C)C)c4)c(=O)oc3c2C)OC1(C)C
6. C=CCn1c(=O)c2cnc(Nc3ccc(N4CCN(C)CC4)cc3)nc2n1-c1cccc(C(C)(C)O)n1 + COC1C(OC(N)=O)C(O)C(Oc2ccc3c(O)c(NC(=O)c4ccc(O)c(CC=C(C)C)c4)c(=O)oc3c2C)OC1(C)C
7. CC[C@@]1(O)C(=O)OCc2c1cc1n(c2=O)Cc2cc3c(CN(C)C)c(O)ccc3nc2-1 + Cc1cccc(N(C)C(=O)C2C(O)CCN2c2nc(C)cc(C(F)(F)F)c2C#N)c1

1. 70.7
2. 113
3. 78.5
4. 94.5
5. 84.8
6. 96.5
7. 80.6

---

tested on: 857933-349-R-J2-PDC complex spheroid viability; assay: Anticancer human tumor 857933-349-R-J2-PDC cell line growth inhibition [POLQ]; conditions: curve of first compound; second compound 0.316 µM;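 further: spheroids exposed to compounds for seven days before readout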
pIC50: −log10 of the molar value.
Exercise: for every item that follows, state its recorded pIC50.

Examples from the recorded data:
CC(=O)O[C@H]1C(=O)[C@@]2(C)[C@H]([C@H](OC(=O)c3ccccc3)[C@]3(O)C[C@H](OC(=O)[C@H](O)[C@@H](NC(=O)c4ccccc4)c4ccccc4)C(C)=C1C3(C)C)[C@]1(OC(C)=O)CO[C@@H]1C[C@@H]2O + Cc1cccc(N(C)C(=O)C2C(O)CCN2c2nc(C)cc(C(F)(F)F)c2C#N)c1    > 8.02
C#Cc1c(F)ccc2cc(O)cc(-c3ncc4c(N5CC6CCC(C5)N6)nc(OCC56CCCN5CC(F)C6)nc4c3F)c12 (stereo not given) + COC1C(OC(N)=O)C(O)C(Oc2ccc3c(O)c(NC(=O)c4ccc(O)c(CC=C(C)C)c4)c(=O)oc3c2C)OC1(C)C    < 5.00
COc1cc2cc(C(=O)CCC(=O)O)sc2cc1OC + COC1C(OC(N)=O)C(O)C(Oc2ccc3c(O)c(NC(=O)c4ccc(O)c(CC=C(C)C)c4)c(=O)oc3c2C)OC1(C)C    < 5.00

Provide pIC50 values for the following items, in order.
1. COc1cccc(OCCCN)c1-c1cc(Nc2cnc(C#N)cn2)n[nH]1 + Cc1cccc(N(C)C(=O)C2C(O)CCN2c2nc(C)cc(C(F)(F)F)c2C#N)c1
2. COc1cc(C2c3cc4c(cc3C(OC3OC5COC(C)OC5C(O)C3O)C3COC(=O)C23)OCO4)cc(OC)c1O (stereo not given) + Cc1cccc(N(C)C(=O)C2C(O)CCN2c2nc(C)cc(C(F)(F)F)c2C#N)c1

1: < 6.00; 2: 6.10

---

Test system: 857933-349-R-J2-PDC complex spheroid viability
Test: Anticancer human tumor 857933-349-R-J2-PDC cell line growth inhibition [POLQ];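 further: spheroids exposed to compounds for seven days before readout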
Details: second compound 10 µM; first compound 0.01 µM; stronger effect = lower value
Protocol: Multicellular complex tumor spheroid response to Polymerase (POL) inhibitors (novobiocin, ART-558, RP6685) in combination with a variety of drugs and investigational agents in selected tumor cell lines The POL inhibitors (novobiocin, ART-558, and RP6685) were evaluated both individually and in combination with standard of care and investigational anticancer small molecules within a complex spheroid model of solid tumors. . […]
Would you mind telling me the reported viability, T/C of each entry?
Give bare numbers, in %.

Reference set (3 entries):
CCc1c2c(nc3ccc(O)cc13)-c1cc3c(c(=O)n1C2)COC(=O)[C@]3(O)CC + COC1C(OC(N)=O)C(O)C(Oc2ccc3c(O)c(NC(=O)c4ccc(O)c(CC=C(C)C)c4)c(=O)oc3c2C)OC1(C)C    42.7
Cn1ncnc1[C@H]1c2n[nH]c(=O)c3cc(F)cc(c23)N[C@@H]1c1ccc(F)cc1 + Nc1ccc(C#CCN(C(=O)Cc2ncc(C(F)(F)F)cc2C(F)(F)F)c2ccc(F)cc2)nn1    92.2
CC[C@@]1(O)C(=O)OCc2c1cc1n(c2=O)Cc2cc3c(CN(C)C)c(O)ccc3nc2-1 + COC1C(OC(N)=O)C(O)C(Oc2ccc3c(O)c(NC(=O)c4ccc(O)c(CC=C(C)C)c4)c(=O)oc3c2C)OC1(C)C    96.3

Could you report viability, T/C for every entry in the following list?
1. C=CCn1c(=O)c2cnc(Nc3ccc(N4CCN(C)CC4)cc3)nc2n1-c1cccc(C(C)(C)O)n1 + COC1C(OC(N)=O)C(O)C(Oc2ccc3c(O)c(NC(=O)c4ccc(O)c(CC=C(C)C)c4)c(=O)oc3c2C)OC1(C)C
2. CCc1c2c(nc3ccc(O)cc13)-c1cc3c(c(=O)n1C2)COC(=O)[C@]3(O)CC + Nc1ccc(C#CCN(C(=O)Cc2ncc(C(F)(F)F)cc2C(F)(F)F)c2ccc(F)cc2)nn1
3. CC[C@@]1(O)C(=O)OCc2c1cc1n(c2=O)Cc2cc3c(CN(C)C)c(O)ccc3nc2-1 + Nc1ccc(C#CCN(C(=O)Cc2ncc(C(F)(F)F)cc2C(F)(F)F)c2ccc(F)cc2)nn1
4. CCc1c2c(nc3ccc(O)cc13)-c1cc3c(c(=O)n1C2)COC(=O)[C@]3(O)CC + Cc1cccc(N(C)C(=O)C2C(O)CCN2c2nc(C)cc(C(F)(F)F)c2C#N)c1
5. CC[C@@]1(O)C(=O)OCc2c1cc1n(c2=O)Cc2cc3c(CN(C)C)c(O)ccc3nc2-1 + Cc1cccc(N(C)C(=O)C2C(O)CCN2c2nc(C)cc(C(F)(F)F)c2C#N)c1
6. COc1cccc(OCCCN)c1-c1cc(Nc2cnc(C#N)cn2)n[nH]1 + Cc1cccc(N(C)C(=O)C2C(O)CCN2c2nc(C)cc(C(F)(F)F)c2C#N)c1

1: 86.8; 2: 57.9; 3: 76.6; 4: 60.2; 5: 56.6; 6: 86.5

The reported measurements were obtained from PubChem BioAssay AID1963836.
